system: MCF-7; experiment: MTT assay cytotoxicity; format: cell-based; conditions: Homo sapiens, MCF7, MCF-7 (breast cancer), 72 h
Quantity: pIC50
Please keep in mind that pIC50 is minus log10 of the molar concentration; only the number is needed.

>>> print(df.to_string())
                                test_smiles  target_or_test_system  measurement
0  Cc1cc(C)c(S(=O)(=O)NC2=NOC3(CCCCCCC3)C2)c(C)c1                  MCF-7         4.10
1  O=S(=O)(NC1=NOC2(CCCCCCC2)C1)c1ccc2c(c1)OCCO2                  MCF-7         4.19
2    O=S(=O)(Cc1ccccc1)NC1=NOC2(CCCCCCC2)C1                  MCF-7         3.86
3  Cc1ccc(S(=O)(=O)NC2=NOC3(CCCCCCC3)C2)cc1                  MCF-7         4.03
4     O=S(=O)(NC1=NOC2(CCCCCCC2)C1)c1ccccc1                  MCF-7         3.94

Attention now shifts to the item below.
Exercise: Give me measured pIC50, please, for this compound: O=S(=O)(NC1=NOC2(CCCCCCC2)C1)c1ccc(F)cc1F
Key: 4.02
